Reported IC50 is given for each of the following compounds.
Target: UniProt P08581
Assay: Test A: HTRF MET assay in 96-well format
Type: biochemical
Parameters: The His-Tev-MET (956-1390) recombinant DNA in pFastBac (Invitrogen) is transfected into insect cells; His tag (N, cleaved yes); TEV cleavage site (N); made in house; host or cells: SF21 insect cells (baculovirus, pFastBac)
Details: MET 5 nM, 10 μM ATP
Sequence (P08581 956-1390): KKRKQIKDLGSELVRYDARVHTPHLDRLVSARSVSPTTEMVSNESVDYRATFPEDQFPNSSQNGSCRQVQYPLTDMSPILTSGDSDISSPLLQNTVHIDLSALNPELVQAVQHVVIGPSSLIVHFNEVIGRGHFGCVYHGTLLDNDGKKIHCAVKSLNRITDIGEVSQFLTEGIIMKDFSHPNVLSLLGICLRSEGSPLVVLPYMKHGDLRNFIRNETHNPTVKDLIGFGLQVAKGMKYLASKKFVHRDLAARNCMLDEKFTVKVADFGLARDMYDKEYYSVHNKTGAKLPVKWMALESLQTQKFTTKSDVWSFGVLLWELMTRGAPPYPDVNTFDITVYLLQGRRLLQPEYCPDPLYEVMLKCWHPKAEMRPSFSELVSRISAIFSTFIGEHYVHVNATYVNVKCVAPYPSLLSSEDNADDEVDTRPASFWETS
Counter-ions that a name gives are not always drawn.

Would you please look over these solved cases?
> print(dat)
                                   compound  value.observed
1  CC(C)(C)OC(=O)Nc1nc2ccc(Sc3nnc4ccc(N5CCOCC5)nn34)cc2s1        < 0.1 µM
2  Fc1ccc(-c2ccc3nnc(Sc4ccc5nc(NCCN6CCOCC6)sc5c4)n3n2)cc1        < 0.1 µM
3  CC(=O)Nc1nc2ccc(Sc3nnc4ccc(-c5cccc(F)c5)nn34)cc2s1        < 0.1 µM
4  Nc1ccc2nnc(Sc3ccc4nc(NC(=O)NCCN5CCOCC5)sc4c3)n2n1        < 0.1 µM
5  COCCNc1ccc2nnc(Sc3ccc4nc(NC(=O)C5CC5)sc4c3)n2n1        < 0.1 µM
6  O=C(NCCN1CCOCC1)Nc1nc2ccc(Sc3nnc4ccc(N5CCOCC5)nn34)cc2s1        < 0.1 µM

Record request: IC50 value, item CN1CCN(c2ccc3nnc(Sc4ccc5nc(NC(=O)OC(C)(C)C)sc5c4)n3n2)CC1 [Example 19, hydrochloride]
< 0.1 µM

Record request: IC50 value, item "CC(C)(C)C(=O)Nc1ccc2nnc(Sc3ccc4nc(NC(=O)NCCN5CCOCC5)sc4c3)n2n1"
< 0.1 µM

Record request: IC50 value, item "Nc1nc2ccc(Sc3nnc4ccc(-c5cccc(F)c5)nn34)cc2s1"
< 0.1 µM

Record request: IC50 value, item "CC(C)(C)OC(=O)Nc1nc2ccc(Sc3nnc4ccc(-c5ccc(F)cc5)nn34)cc2s1"
< 0.1 µM

Record request: IC50 value, item "O=C(NCCN1CCOCC1)Nc1nc2ccc(Sc3nnc4ccc(-c5ccc(F)cc5)nn34)cc2s1"
< 0.1 µM

Record request: IC50 value, item "COc1ccc2nnc(Sc3ccc4nc(NC(=O)OC(C)(C)C)sc4c3)n2n1"
< 0.1 µM

Record request: IC50 value, item "Nc1nc2ccc(Sc3nnc4ccc(-c5ccc(F)cc5)nn34)cc2s1"
< 0.1 µM

* * *

Molecular target: MET (Homo sapiens)
Assay: Test B: Inhibition of the autophosphorylation of MET; ELISA technique (pppY1230,1234,1235) in MKN45 cells
Assay type: cell-based
Set-up: Seed MKN45 cells into 96-well plates (Cell coat BD polylysine) at 20 000 cells/well; endogenous in cells; host or cells: MKN45 cells
Details: 1 h treatment, PhosphoMET ELISA
Sequence (P08581 25-1390): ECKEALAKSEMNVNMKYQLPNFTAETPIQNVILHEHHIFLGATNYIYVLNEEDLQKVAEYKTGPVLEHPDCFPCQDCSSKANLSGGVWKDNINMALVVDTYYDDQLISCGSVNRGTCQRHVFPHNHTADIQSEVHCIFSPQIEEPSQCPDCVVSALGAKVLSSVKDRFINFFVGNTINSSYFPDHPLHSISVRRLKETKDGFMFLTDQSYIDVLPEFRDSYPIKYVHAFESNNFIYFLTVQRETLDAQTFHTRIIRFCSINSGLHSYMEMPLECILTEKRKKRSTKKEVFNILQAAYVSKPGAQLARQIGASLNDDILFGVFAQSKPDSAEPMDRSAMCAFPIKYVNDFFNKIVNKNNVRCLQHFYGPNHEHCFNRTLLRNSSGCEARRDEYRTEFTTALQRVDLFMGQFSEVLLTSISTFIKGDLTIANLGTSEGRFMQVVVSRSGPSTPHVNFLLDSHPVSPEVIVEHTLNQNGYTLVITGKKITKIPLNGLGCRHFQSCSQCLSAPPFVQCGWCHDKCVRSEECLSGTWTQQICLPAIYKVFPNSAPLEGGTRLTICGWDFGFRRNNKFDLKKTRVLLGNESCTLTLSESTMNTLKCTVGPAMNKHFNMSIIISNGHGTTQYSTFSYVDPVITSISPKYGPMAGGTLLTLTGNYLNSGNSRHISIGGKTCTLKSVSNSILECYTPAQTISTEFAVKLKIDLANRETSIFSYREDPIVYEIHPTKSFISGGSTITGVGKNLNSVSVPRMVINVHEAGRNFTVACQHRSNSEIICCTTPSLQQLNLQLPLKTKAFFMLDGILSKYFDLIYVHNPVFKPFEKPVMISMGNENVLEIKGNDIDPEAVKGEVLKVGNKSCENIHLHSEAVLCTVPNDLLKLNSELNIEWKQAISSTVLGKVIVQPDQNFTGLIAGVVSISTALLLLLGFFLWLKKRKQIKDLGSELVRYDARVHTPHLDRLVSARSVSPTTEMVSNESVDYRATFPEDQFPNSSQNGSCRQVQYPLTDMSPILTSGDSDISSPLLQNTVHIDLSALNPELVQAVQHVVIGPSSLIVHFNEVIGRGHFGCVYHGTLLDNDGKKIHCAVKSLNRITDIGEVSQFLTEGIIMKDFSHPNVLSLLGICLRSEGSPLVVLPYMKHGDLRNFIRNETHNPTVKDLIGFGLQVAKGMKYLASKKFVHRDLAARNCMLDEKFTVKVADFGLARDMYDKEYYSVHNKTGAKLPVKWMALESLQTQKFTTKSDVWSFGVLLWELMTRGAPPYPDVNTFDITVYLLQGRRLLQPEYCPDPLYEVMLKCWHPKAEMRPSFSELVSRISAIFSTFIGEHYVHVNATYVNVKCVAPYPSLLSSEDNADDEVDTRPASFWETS
readout kind: IC50

Would you please look over these solved cases?
> print(dat)
                                    molecule  readout.kind  value.observed
 1  CC(C)(C)OC(=O)Nc1nc2ccc(Sc3nnc4ccc(-c5ccc(F)cc5)nn34)cc2s1 [Example 2]          IC50   100 to 500 nM
 2  CC(=O)Nc1nc2ccc(Sc3nnc4ccc(-c5cccc(F)c5)nn34)cc2s1 [Example 65]          IC50        < 100 nM
 3  O=C(Nc1nc2ccc(Sc3nnc4ccc(-c5ccc(F)cc5)nn34)cc2s1)OCCN1CCOCC1 [Example 12]          IC50        < 100 nM
 4  CCOC(=O)Nc1nc2ccc(Sc3nnc4ccc(OC)nn34)cc2s1 [Example 45]          IC50   100 to 500 nM
 5  CN1CCN(CCNC(=O)Nc2nc3ccc(Sc4nnc5n4N=C(c4ccc(F)cc4)CC5)cc3s2)CC1 [Example 13]          IC50        < 100 nM
 6  CCC(C)CNc1nc2ccc(Sc3nnc4ccc(NCCOC)nn34)cc2s1 (stereo not drawn) [Example 57]          IC50   100 to 500 nM
 7  CC(C)(C)C(=O)Nc1ccc2nnc(Sc3ccc4nc(NC(=O)NCCN5CCOCC5)sc4c3)n2n1 [Example 32]          IC50        < 100 nM
 8  COCCNc1ccc2nnc(Sc3ccc4nc(NC(=O)CCCN5CCOCC5)sc4c3)n2n1 [Example 39]          IC50        < 100 nM
 9  O=C(Nc1nc2ccc(Sc3nnc4ccc(-c5ccc(F)cc5)nn34)cc2s1)C1CC1 [Example 60]          IC50        < 100 nM
10  O=C(NCCN1CCOCC1)Nc1nc2ccc(Sc3nnc4n3N=C(c3ccc(F)cc3)CC4)cc2s1 [Example 44]          IC50        < 100 nM

Record request: IC50 value, item CCC(C)CNc1nc2ccc(Sc3nnc4n3N=C(c3ccc(F)cc3)CC4)cc2s1 (stereo not drawn) [Example 68]
> 500 nM

Record request: IC50 value, item COCCNc1ccc2nnc(Sc3ccc4nc(NC(=O)C5CC5)sc4c3)n2n1 [Example 40]
< 100 nM

Reference source: patent US9115134B2
